Target desc: T1, full-length untagged human GPNMB expressed on cells (human, UniProt Q14956 23-572)
T1 construct: also used here for GPNMB on human monocyte-derived macrophages in the functional assays; also called huGPNMB; Freestyle293-huGPNMB+
T1 sequence: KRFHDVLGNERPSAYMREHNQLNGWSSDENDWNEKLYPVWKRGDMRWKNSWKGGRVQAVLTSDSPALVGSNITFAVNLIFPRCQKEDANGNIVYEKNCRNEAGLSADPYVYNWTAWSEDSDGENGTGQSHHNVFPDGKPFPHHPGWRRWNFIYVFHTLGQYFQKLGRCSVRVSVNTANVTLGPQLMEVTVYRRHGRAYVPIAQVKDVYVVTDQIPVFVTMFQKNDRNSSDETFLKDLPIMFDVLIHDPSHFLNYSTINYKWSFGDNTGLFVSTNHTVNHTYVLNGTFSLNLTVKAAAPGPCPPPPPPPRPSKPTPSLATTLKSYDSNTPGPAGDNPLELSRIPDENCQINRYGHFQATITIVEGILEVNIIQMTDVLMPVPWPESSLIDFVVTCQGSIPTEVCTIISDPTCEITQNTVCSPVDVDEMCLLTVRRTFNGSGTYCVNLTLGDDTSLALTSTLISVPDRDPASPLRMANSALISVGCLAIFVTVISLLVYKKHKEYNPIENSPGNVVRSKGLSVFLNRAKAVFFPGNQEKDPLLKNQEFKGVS
Test details: FACS titration, FS293-huGPNMB+ cells

- Binder: "anti-GPNMB antibody GPN-07 (antibody, human IgG1, V domains shown, chimeric) VH: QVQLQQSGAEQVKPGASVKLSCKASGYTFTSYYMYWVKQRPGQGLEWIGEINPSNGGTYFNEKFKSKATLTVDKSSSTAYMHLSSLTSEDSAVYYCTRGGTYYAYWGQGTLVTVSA VL: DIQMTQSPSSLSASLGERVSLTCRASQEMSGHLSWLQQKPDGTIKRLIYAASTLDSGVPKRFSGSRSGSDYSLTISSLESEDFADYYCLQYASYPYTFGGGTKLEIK"
  Measure unit: "µM"
  EC50: 0.0184
